Source: ChEMBL document CHEMBL3301361

assay-remarks: in vitro
condition: Beagle, dog, plasma
So I've got a bunch of compounds here, and I need their fraction unbound at 5 h values.
Give bare numbers.

Respectfully, I request fraction unbound at 5 h for each entry included below.
1. CO[C@H]1CN(CCn2c(=O)ccc3ccc(C#N)cc32)CC[C@H]1NCc1cc2c(cn1)OCCO2
2. Cc1cc(Nc2cnc(C#N)c(N[C@@H](C)c3ncc(F)cn3)n2)n[nH]1
3. CC(C)Cn1c(=O)n(C)c(=O)c2c(C(=O)N3CC[C@@H](O)C3)c(Cc3c[nH]c4ccccc34)sc21

# output
1: 0.569; 2: 0.398; 3: 0.443

====

assay-remarks: in vitro
condition: human, plasma
Kindly return 1 if reported fraction unbound at 5 h is no lower than 0.02; return -1 if it is lower.

# input Has CC(C)Nc1nc(NCc2ccccc2)c2sccc2n1 a recorded fraction unbound at 5 h greater than or equal to 0.02?
# output -1

# input Further, for O=C(NCC12CC3CC(CC(C3)C1)C2)c1cc(N2CCNCC2)ccc1Cl ?
# output 1

# input Further, for COC(=O)[C@H]1[C@@H](c2ccc(I)cc2)C[C@@H]2CC[C@H]1N2CCCF ?
# output 1

# input Further, for CN(C)S(=O)(=O)c1ccc2c(c1)N(CCN1CCC(NCc3ccc4c(n3)NC(=O)CO4)CC1)C(=O)CO2 ?
# output 1

# input Further, for CNC1=Nc2ccc(Cl)cc2C(c2ccccc2)=[N+]([O-])C1 [CHLORDIAZEPOXIDE] ?
# output 1

# input Further, for COc1ccc(S(=O)(=O)N2CC(C)N(S(=O)(=O)c3ccc(OC)cc3)CC2C)cc1 (stereo not given) ?
# output -1

# input Further, for NCCCCCc1c[nH]c2ccc(F)cc12 ?
# output 1

# input Further, for COc1ccc(NC(=O)c2ccc(C[S+](C)[O-])c3ccccc23)c(C(=O)NCC2CCOCC2)n1 (stereo not given) ?
# output 1

# input Further, for Nc1nc(-c2nn(Cc3ccccc3F)c3ncccc23)nc(N)c1N1CCOCC1 ?
# output 1

# input Further, for NC(=O)c1ccc(Oc2cccc3cccnc23)c([N+](=O)[O-])c1 ?
# output 1

***
# input Has COc1cc(/C=C2\SC(=O)NC2=O)ccc1Oc1ccc(C#N)cc1C(F)(F)F a recorded fraction unbound at 5 h greater than or equal to 0.02?
# output -1

# input Further, for C[C@H]1CN(Cc2cc(Cl)ccc2OCC(=O)O)CCN1C(=O)Cc1ccc(Cl)cc1 ?
# output -1

# input Further, for COc1cccc(CNc2nc(NC(C)C)nc3ccsc23)c1OC ?
# output -1

# input Further, for O=C(Nc1ccncc1)c1cccc2ccccc12 ?
# output 1

# input Further, for COc1ccc(N(C(=O)Oc2c(C)cccc2C)c2ccnc(Nc3ccc(N4CCN(C)CC4)cc3)n2)c(OC)c1 ?
# output -1

====

assay-remarks: physchem
condition: octan-1-ol/water, pH 7.4, LogD7.4
Class definitions on logD: lower segment = under 2, middle segment = from 2 up to 3, upper segment = 3 and over

# input Could you place O=C(c1cc2cc(Cl)ccc2[nH]1)N1CCNCC1 in its proper category? Many thanks.
# output lower segment

# input Further, for CN(C)C(=O)[C@H](Cc1ccccc1)NC(=O)c1cc2sccc2[nH]1 ?
# output upper segment

***
# input Could you place CC1=NS(=O)(=O)c2cc(Cl)ccc2N1 [DIAZOXIDE] in its proper category? Many thanks.
# output lower segment

# input Further, for CC[C@H](NC(=O)c1c(CC[S+](C)[O-])c(-c2ccccc2)nc2ccccc12)c1ccccc1 (some centres undefined) ?
# output upper segment

# input Further, for Cc1cc2n[nH]c(=O)n2c2cc(-c3cccc(CO)c3)ccc12 ?
# output upper segment

# input Further, for N#Cc1cnn2c(NC3CC3)cc(-c3cccs3)nc12 ?
# output middle segment

# input Further, for CC(=O)N(C)c1ccc(Nc2ncc3cc(-c4ccncc4)ccc3n2)cc1 ?
# output middle segment

# input Further, for COc1cc(Nc2nc(N[C@@H](C)c3ncc(F)cn3)nc(N3CCOCC3)c2Cl)n[nH]1 ?
# output middle segment

# input Further, for CC(=O)Nc1ccc2c(c1)N(c1cc(NC3CC3)n3ncc(C#N)c3n1)CC2 ?
# output upper segment
